Data provenance is paper PMC6722136.

Molecular target: CA VI-mimic (CA II mutant A65T, N67Q, F130Y, V134Q, L203T) (Homo sapiens, UniProt P00918, A65T/F130Y/L203T/N67Q/V134Q)
Construct: encoding full length CA II (1-260), was used in site-directed mutagenesis; made in house; host or cells: E. coli BL21(DE3)
Assay: Fluorescent thermal shift assay (FTSA), inhibitor binding to CA VI-mimic
Conditions: FTSA; read-out: Kd_obs CA VI-mimic
PROPERTY_MEASURED: Kd (µM)

INSERT INTO measurements (smiles_data, property_measured, readout_units, experimental_value) VALUES
  ('NS(=O)(=O)c1c(F)c(F)c(SCCc2ccccc2)c(F)c1N1CCOCC1', 'Kd', 'µM', 100);

---

Target: CA VI-mimic (CA II mutant A65T, N67Q, F130Y, V134Q, L203T) (Homo sapiens, UniProt P00918, A65T/F130Y/L203T/N67Q/V134Q)
Construct: encoding full length CA II (1-260), was used in site-directed mutagenesis; made in house; host or cells: E. coli BL21(DE3)
Assay: Fluorescent thermal shift assay (FTSA), inhibitor binding to CA VI-mimic
Details: FTSA, 37 °C
PROPERTY_MEASURED: difference between Kd_obs and Kd_intr for CA VI-mimic

INSERT INTO measurements (smiles_data, experimental_value) VALUES
  ('NS(=O)(=O)c1c(F)c(F)c(S(=O)(=O)CCc2ccccc2)c(F)c1F', 'lower than 10 fold'),
  ('NS(=O)(=O)c1c(F)c(F)c(S(=O)(=O)c2ccccc2)c(F)c1F', 'lower than 10 fold'),
  ('NS(=O)(=O)c1c(F)c(F)c(S(=O)(=O)CCO)c(F)c1F', 'lower than 10 fold');
